molecular target: NPFF-R2 (Homo sapiens); construct: host or cells: CHO-K1 (AequoScreen, co-expressing aequorin); assay: Intracellular Ca^2+ mobilization, AequoScreen CHO-K1 cells with NPFF-R2; assay type: cell-based; details: CHO-K1 NPFF-R2 aequorin cells; peptides 10^−12 to 10^−5 M; mean ± SEM, three times in duplicates; read-out: EC50 intracellular Ca^2+ release, NPFF-R2
Sequence (Q9Y5X5 whole entry): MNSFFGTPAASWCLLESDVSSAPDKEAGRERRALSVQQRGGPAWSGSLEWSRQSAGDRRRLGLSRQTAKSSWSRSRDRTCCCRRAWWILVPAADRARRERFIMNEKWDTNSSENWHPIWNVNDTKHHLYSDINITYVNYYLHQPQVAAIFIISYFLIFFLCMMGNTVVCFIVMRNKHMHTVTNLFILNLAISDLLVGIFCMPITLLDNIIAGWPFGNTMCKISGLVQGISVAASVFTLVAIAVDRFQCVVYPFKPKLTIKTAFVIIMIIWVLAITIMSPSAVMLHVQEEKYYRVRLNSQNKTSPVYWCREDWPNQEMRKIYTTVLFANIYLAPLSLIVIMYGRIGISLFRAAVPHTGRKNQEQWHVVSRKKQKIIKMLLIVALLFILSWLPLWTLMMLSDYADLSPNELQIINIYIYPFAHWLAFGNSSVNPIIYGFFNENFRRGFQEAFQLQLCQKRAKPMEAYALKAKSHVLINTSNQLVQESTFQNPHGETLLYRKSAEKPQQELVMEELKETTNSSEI
No end group written: not given here.
Readout: EC50 (µM)
Report the figure in µM without appending any unit label.

(Q) For the substance SRAHQHSMETRTPDINPAWYTGRGIRPVGRF-NH2 [PrRP31, prolactin-releasing peptide 31, reference compound] , give its measured EC50 value.
(A) 0.0893

Entry source: paper PMC8396344
